The origin of these recorded values is patent US20160257732A1.

Molecular target: HA of ca A/Japan/57 (H2N2) (influenza A virus)
Test: cell-based or functional assay
Listed next: entries and their corresponding Neutralization IC50, H2-JP57.

BINDER	Neutralization IC50, H2-JP57 / µg/mL
Antibody 12 (antibody, V domains shown) VH: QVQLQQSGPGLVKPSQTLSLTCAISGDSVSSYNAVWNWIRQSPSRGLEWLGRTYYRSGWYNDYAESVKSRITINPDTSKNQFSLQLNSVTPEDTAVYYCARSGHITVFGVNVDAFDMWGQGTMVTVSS VL: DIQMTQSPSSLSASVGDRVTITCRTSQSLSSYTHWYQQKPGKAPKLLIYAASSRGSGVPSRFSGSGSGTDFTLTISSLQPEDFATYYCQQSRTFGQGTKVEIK	0.35
Antibody 15 (antibody, V domains shown) VH: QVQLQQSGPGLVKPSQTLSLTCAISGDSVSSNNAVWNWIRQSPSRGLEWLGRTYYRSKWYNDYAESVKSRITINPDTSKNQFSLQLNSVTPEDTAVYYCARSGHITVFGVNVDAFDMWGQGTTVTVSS VL: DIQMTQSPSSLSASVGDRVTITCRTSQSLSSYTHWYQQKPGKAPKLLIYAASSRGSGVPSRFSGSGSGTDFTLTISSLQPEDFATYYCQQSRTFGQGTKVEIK	0.33
Antibody 14 (antibody, V domains shown) VH: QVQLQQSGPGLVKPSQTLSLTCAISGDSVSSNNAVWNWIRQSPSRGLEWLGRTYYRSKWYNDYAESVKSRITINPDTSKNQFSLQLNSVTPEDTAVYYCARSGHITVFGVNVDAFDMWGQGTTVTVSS VL: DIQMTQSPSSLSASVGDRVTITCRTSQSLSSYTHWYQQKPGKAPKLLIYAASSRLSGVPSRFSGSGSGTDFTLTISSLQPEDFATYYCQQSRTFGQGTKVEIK	0.67
Antibody 3 (antibody, V domains shown) VH: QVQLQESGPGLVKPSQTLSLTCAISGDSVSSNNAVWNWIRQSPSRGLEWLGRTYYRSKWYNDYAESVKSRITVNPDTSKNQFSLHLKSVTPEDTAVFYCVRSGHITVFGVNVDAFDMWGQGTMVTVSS VL: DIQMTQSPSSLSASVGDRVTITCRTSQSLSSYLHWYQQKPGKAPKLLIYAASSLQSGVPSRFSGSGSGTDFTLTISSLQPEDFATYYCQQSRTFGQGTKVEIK	0.46
Antibody 11 (antibody, V domains shown) VH: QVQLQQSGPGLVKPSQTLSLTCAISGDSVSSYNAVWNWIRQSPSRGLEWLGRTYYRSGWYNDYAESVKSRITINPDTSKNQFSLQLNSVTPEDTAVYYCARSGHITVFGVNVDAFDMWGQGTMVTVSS VL: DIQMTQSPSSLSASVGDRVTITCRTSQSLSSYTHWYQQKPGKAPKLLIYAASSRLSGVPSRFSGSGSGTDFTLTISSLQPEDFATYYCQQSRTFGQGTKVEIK	0.31
Antibody 13 (antibody, V domains shown) VH: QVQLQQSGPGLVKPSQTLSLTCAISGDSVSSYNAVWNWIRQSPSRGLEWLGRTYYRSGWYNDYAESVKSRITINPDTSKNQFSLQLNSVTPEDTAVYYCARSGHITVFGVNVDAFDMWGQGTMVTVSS VL: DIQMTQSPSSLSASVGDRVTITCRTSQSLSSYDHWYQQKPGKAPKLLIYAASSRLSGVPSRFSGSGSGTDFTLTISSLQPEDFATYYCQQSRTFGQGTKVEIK	0.47
